System: A. baumannii CDC-0036
Assay: microbe, parasite or virus in culture
Type: cell-based
Details: Acinetobacter baumannii, CDC0036, read-out: MIC, A. baumannii CDC-0036
Parameter MIC: see the listing below.

MOLECULE: O=C(O)c1c(F)ccc2c1OB(O)[C@@H](NC(=O)C(NC(=O)N1CCN(CCNC(=O)[C@@H]3CCCN3)C1=O)c1cc(F)c(O)c(O)c1Cl)C2 (some centres unmarked) [Example 248]
READOUT: MIC
REPORTED: 2 to 4 µg/mL
--
MOLECULE: O=C(NCCCS(=O)(=O)N1CCN(C(=O)NC(C(=O)N[C@H]2Cc3ccc(F)c(C(=O)O)c3OB2O)c2cc(F)c(O)c(O)c2Cl)C1=O)Nc1cccnc1 (some centres unmarked) [Example 278]
READOUT: MIC
REPORTED: 2 to 4 µg/mL
--
MOLECULE: O=C(NCCCN1CCN(C(=O)NC(C(=O)N[C@H]2Cc3ccc(F)c(C(=O)O)c3OB2O)c2cc(F)c(O)c(O)c2Cl)C(=O)C1=O)c1cc(O)cc(O)c1 (some centres unmarked) [Example 423]
READOUT: MIC
REPORTED: 2 to 4 µg/mL
--
MOLECULE: O=C(O)c1c(F)ccc2c1OB(O)[C@@H](NC(=O)[C@H](NC(=O)N1CCN(C3CCN(C(=O)Nc4cc(O)ccc4Cl)CC3)C1=O)c1cc(F)c(O)c(O)c1Cl)C2 (single isomer, unassigned) [Example 448]
READOUT: MIC
REPORTED: < 1 µg/mL

Lab note: next molecule to report on.
What value of measured MIC is listed for O=C(NCCN1CCN(C(=O)NC(C(=O)N[C@H]2Cc3ccc(F)c(C(=O)O)c3OB2O)c2cc(F)c(O)c(O)c2Cl)C(=O)C1=O)c1ccccc1 (some centres unmarked) [Example 207] ?
8 to 16 µg/mL
